Reference source: ChEMBL document CHEMBL1134564

assay-system: Plasminogen (Homo sapiens)
Sequence (P00747 97-580 limits assumed): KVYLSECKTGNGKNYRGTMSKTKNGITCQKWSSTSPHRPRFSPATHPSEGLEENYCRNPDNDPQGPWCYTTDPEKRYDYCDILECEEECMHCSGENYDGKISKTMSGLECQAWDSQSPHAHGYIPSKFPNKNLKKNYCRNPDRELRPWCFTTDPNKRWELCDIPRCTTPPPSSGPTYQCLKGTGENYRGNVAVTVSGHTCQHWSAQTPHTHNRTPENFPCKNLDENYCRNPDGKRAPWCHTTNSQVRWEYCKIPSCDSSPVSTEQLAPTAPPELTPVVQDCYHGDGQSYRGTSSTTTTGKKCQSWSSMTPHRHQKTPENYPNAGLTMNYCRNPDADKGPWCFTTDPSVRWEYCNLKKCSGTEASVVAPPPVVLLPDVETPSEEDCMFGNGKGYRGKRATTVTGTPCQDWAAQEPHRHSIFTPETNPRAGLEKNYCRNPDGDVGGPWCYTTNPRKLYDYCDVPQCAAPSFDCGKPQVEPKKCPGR
Sequence (P00747 581-810 limits assumed): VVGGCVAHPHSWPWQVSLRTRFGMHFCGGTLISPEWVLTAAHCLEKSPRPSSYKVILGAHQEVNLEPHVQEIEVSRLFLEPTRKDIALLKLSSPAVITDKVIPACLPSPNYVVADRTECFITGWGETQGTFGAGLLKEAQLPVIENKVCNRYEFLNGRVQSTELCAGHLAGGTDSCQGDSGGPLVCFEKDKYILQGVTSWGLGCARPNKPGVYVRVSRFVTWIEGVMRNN
assay-notes: Inhibition of Human Serine Protease Plasmin.
pKi: −log10 of the molar value.

| smiles-str | assay-system | pKi |
| --- | --- | --- |
| COc1cccc(-c2nc3ccc(C(=N)N)cc3[nH]2)c1O | Plasminogen (Homo sapiens) | 4.72 |
| N=C(N)c1ccc2[nH]c(-c3cc([N+](=O)[O-])cc(-c4ccccc4)c3O)cc2c1 | Plasminogen (Homo sapiens) | 6.72 |
| N=C(N)c1ccc2[nH]c(-c3cc([N+](=O)[O-])cc(Br)c3O)cc2c1 | Plasminogen (Homo sapiens) | 5.68 |
| N=C(N)c1ccc2nc(-c3ccc4ccccc4c3O)[nH]c2c1 | Plasminogen (Homo sapiens) | 4.48 |
| N=C(N)c1ccc2[nH]c(-c3cccc(Br)c3O)nc2c1 | Plasminogen (Homo sapiens) | 5.77 |
| Cn1c(-c2cccc(-c3ccccc3)c2O)nc2ccc(C(=N)N)cc21 | Plasminogen (Homo sapiens) | 4.92 |
| CCN(CC)c1ccc(-c2nc3cc(C(=N)N)ccc3[nH]2)c(O)c1 | Plasminogen (Homo sapiens) | 4.10 |
| Cc1ccc(O)c(-c2nc3cc(C(=N)N)ccc3[nH]2)c1 | Plasminogen (Homo sapiens) | 4.22 |
| Cc1cc(Br)c(O)c(-c2nc3ccc(C(=N)N)cc3[nH]2)c1 | Plasminogen (Homo sapiens) | 5.49 |
| N=C(N)c1ccc2nc(-c3cc(F)ccc3O)[nH]c2c1 | Plasminogen (Homo sapiens) | 4.68 |
| Cc1cccc(-c2nc3cc(C(=N)N)ccc3[nH]2)c1O | Plasminogen (Homo sapiens) | 4.22 |
